From: paper PMC11062922

- System: ICK
- Set-up: species or system human, MV4-11 + K-562 + COLO205 + SK-N-BE2 + OVCAR-8
- TEST_PARAMETERS: read-out: apparent Kd; compound concentrations:100 nM and 1000 nM (sheet 'Samples'); n = 1
Listing: potency estimated from few doses of selected compounds
PARAMETER_MEASURED: potency estimated from few doses

- Cn1cc(C2=C(c3cn(CCCSC(=N)N)c4ccccc34)C(=O)NC2=O)c2ccccc21: 1720 nM
- CN1CCC(C(=O)Nc2n[nH]c3nc(-c4ccc(O)cc4)c(Br)cc23)CC1: 1230 nM
- CS(=O)(=O)N1CCC(Nc2ncc(C(=O)c3c(F)cccc3F)c(N)n2)CC1: 1260 nM
- COc1cc2ncnc(Nc3cccc(Br)c3)c2cc1OC.Cl [GI230329A]: 1370 nM

====

- ASSAY_TARGET: Q6ZSR9 (human)
- Sequence (Q6ZSR9 whole entry, looked up): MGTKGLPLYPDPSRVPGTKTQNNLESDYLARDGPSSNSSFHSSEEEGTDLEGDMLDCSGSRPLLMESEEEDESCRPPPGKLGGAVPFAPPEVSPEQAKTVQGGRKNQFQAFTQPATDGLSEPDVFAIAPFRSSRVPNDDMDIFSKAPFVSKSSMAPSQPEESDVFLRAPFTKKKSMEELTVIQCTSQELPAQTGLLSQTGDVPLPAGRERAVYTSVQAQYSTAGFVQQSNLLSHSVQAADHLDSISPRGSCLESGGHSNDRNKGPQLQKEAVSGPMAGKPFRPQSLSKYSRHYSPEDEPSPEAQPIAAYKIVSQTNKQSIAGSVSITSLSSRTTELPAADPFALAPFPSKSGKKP
- Parameters: species or system MV4-11 + K-562 + COLO205 + SK-N-BE2 + OVCAR-8
- TEST_PARAMETERS: read-out: apparent Kd; compound concentrations:100 nM and 1000 nM (sheet 'Samples'); n = 1
Recorded potency estimated from few doses for the following compounds
PARAMETER_MEASURED: potency estimated from few doses (nM)

- Cl.Cn1c(=O)c(Cc2ccc(F)cc2F)cc2cnc(NC3CCOCC3)nc21: 1840
- CCn1c(-c2nonc2N)nc2cncc(Br)c21: 369
- CC(C)Oc1ccc2c(-c3ccnc(Nc4ccc(N5CCN(C)CC5)cc4)n3)cnn2n1 [GW696155X]: 39.6
- CN(C)CC(O)COc1ccc(Nc2nccc(-c3cnn4nc(N5CCOCC5)ccc34)n2)cc1 (centres unmarked) [GW767488X]: 29.6
- Nc1nccc(-c2ccc3c(N)n[nH]c3c2)n1 [GSK1034945A]: 225
- NCCNS(=O)(=O)c1ccc(-c2ccnc3[nH]ccc23)cc1 [GSK977617A]: 450
- NS(=O)(=O)c1ccc(N/N=C2\C(=O)Nc3ccc(C(=O)NCc4ccncc4)cc32)cc1 [GSK300657X]: 2140
- COc1cc2ncn(-c3cc(OCc4cccs4)c(C(N)=O)s3)c2cc1OC [GSK312948A]: 2250

====

- Test system: PIK3CD
- Parameters: species or system human, MV4-11 + K-562 + COLO205 + SK-N-BE2 + OVCAR-8
- TEST_PARAMETERS: read-out: apparent Kd; compound concentrations:100 nM and 1000 nM (sheet 'Samples'); n = 1
Each item that follows carries a reported potency estimated from few doses.
PARAMETER_MEASURED: potency estimated from few doses (µM)

- CN1CCC(C(=O)Nc2n[nH]c3nnc(-c4ccccc4)cc23)CC1.Cl: 0.173
- COC(=O)Nc1nc2ccc(Oc3ccc(CC(=O)Nc4cc(C(F)(F)F)ccc4F)cc3)cc2[nH]1 [GW680903X]: 0.104
- O=C(O)C(F)(F)F.[2H]C([2H])(c1cccc(C(F)(F)F)c1C)n1c(SC)nn2c(=O)cc(N3CCOCC3)nc12 [GSK2363608B]: 0.146
- Fc1ccc(-c2nc[nH]c2-c2ccncc2)cc1: 0.114
- O=C(Nc1n[nH]c2nc(-c3ccccc3)c(Br)cc12)C1CC1: 0.187
- O=c1cc(N2CCOCC2)nc2n(Cc3cccc(Cl)c3Cl)c(C3CC3)nn12 [GSK2358994A]: 0.0142
- CS(=O)(=O)Nc1ccc(-c2ccnc3[nH]ccc23)cc1 [GSK993273A]: 0.183
- O=c1cc(N2CCOCC2)nc2n(Cc3cccc4ccccc34)ccn12 [GSK2333389A]: 0.214

====

- Test system: RET
- Parameters: species or system human, MV4-11 + K-562 + COLO205 + SK-N-BE2 + OVCAR-8
- TEST_PARAMETERS: read-out: apparent Kd; compound concentrations:100 nM and 1000 nM (sheet 'Samples'); n = 1
PARAMETER_MEASURED: potency estimated from few doses (nM)

- CN1CCN(CCNc2nc3cc(Oc4ccc(NC(=O)Nc5cc(C(F)(F)F)ccc5F)cc4)ccc3[nH]2)CC1.CN1CCN(CCNc2nc3cc(Oc4ccc(NC(=O)Nc5cc(C(F)(F)F)ccc5F)cc4)ccc3[nH]2)CC1.Cl.Cl [GW768504A]: 1080
- C=CC(=O)Nc1cc(-c2nn(C3CCC(N4CCN(C(C)=O)CC4)CC3)c3ncnc(N)c23)ccc1Oc1ccccc1 (stereo not shown): 712
- Cl.Cl.NCC(C(=O)Nc1cc(Br)c(-c2ccnc3[nH]ccc23)s1)c1ccccc1.NCC(C(=O)Nc1cc(Br)c(-c2ccnc3[nH]ccc23)s1)c1ccccc1 (stereo not shown) [GSK1269851A]: 539
- CC(=O)N[C@@H](Cc1ccc(OP(=O)(O)O)cc1)C(=O)N[C@H]1CCC(=O)N2CCC[C@@H](C(=O)NCc3ccc(Cl)cc3)N2C1=O: 876
- Cl.O=C(Nc1ccc(Oc2ccc3[nH]c(NC(=O)c4ccco4)nc3c2)cc1)Nc1cc(C(F)(F)F)ccc1F: 498
- Nc1ncnc2occ(-c3ccc(NC(=O)Nc4cc(C(F)(F)F)ccc4F)cc3)c12: 17.1
- CCn1c(-c2nonc2N)nc2c(C#CC(C)(C)O)nc(O[C@@H](CN)c3ccccc3)cc21.O=C(O)C(F)(F)F [GSK1007102B]: 1250
- CS(=O)(=O)Cc1ccc(Nc2nccc(-c3c(-c4cccc(NC(=O)C5CCCCC5)c4)nn4ncccc34)n2)cc1 [GSK350559A]: 1370
- CS(=O)(=O)CCn1c(=O)c(Oc2ccc(F)cc2F)cc2cnc(NC3CCOCC3)nc21: 823
- COc1cc(Nc2cnc(C#N)c(O[C@H](C)CN(C)C)n2)ncc1-c1cnn(C)c1: 112
- CCN(CC)CCOc1ccc(Nc2ncc3cc(-c4c(Cl)cccc4Cl)c(=O)n(C)c3n2)cc1: 167
- COc1cc[nH]c1/C=C1\C(=O)Nc2ccc(F)c(C#C[C@@H](O)[C@@H](N)[C@@H](C)O)c21: 117
- CN(C)C/C=C/C(=O)Nc1ccc(C(=O)Nc2cccc(Nc3ncc(Cl)c(-c4c[nH]c5ccccc45)n3)c2)cc1: 921
- COc1cc(/C=N/Nc2ncnc3[nH]ncc23)ccc1O [GW578748X]: 494
- NCCNS(=O)(=O)c1ccc(-c2ccnc3[nH]ccc23)cc1 [GSK977617A]: 569
- COC(=O)Nc1nc2ccc(Oc3ccc(NC(=O)Nc4cc(C(F)(F)F)ccc4F)cc3)cc2[nH]1.Cl [GW654607A]: 640
- COc1cc2c(Nc3ccc(NC(=O)c4ccccc4)cc3)ncnc2cc1OCCCN1CCOCC1 [GSK301329A]: 1450
- Cl.O=C(Nc1ccc(Oc2ccc3[nH]c(NC(=O)c4ccccc4)nc3c2)cc1)Nc1cc(C(F)(F)F)ccc1F [GW709042A]: 1420
- Cl.Cn1c(=O)c(Cc2ccc(F)cc2F)cc2cnc(NC3CCOCC3)nc21: 877

====

- Tested on: ZAK
- Design: species or system human, MV4-11 + K-562 + COLO205 + SK-N-BE2 + OVCAR-8
- TEST_PARAMETERS: read-out: apparent Kd; compound concentrations:100 nM and 1000 nM (sheet 'Samples'); n = 1
# maps each entry to its potency estimated from few doses
PARAMETER_MEASURED: potency estimated from few doses (nM)

• Nc1nc(-c2cccnc2)c(-c2ccnc3ccccc23)s1 [GW684083X] = 1440
• COc1cccc(-c2c[nH]c3c(N/N=C/c4ccncc4)ncnc23)c1 [GW814408X] = 1540
• COC(=O)Nc1nc2cc(Oc3ccc(NC(=O)Nc4cccc(SC)c4)cc3)ccc2[nH]1.Cl [GW697999A] = 1910
• Cl.O=C(Nc1ccc(Oc2ccc3[nH]c(NC(=O)c4ccco4)nc3c2)cc1)Nc1cc(C(F)(F)F)ccc1F [GW683134A_KCGS] = 2150

====

- Test system: ACVR1B
- Parameters: species or system human, MV4-11 + K-562 + COLO205 + SK-N-BE2 + OVCAR-8
- TEST_PARAMETERS: read-out: apparent Kd; compound concentrations:100 nM and 1000 nM (sheet 'Samples'); n = 1
PARAMETER_MEASURED: potency estimated from few doses

• COc1ccc(-c2cc(-c3c[nH]nc3-c3ccccn3)ccn2)cc1 [GW679410X] = 686 nM
• Fc1ccc(-c2c(-c3ccncc3)[nH]c3nccnc23)cc1 = 711 nM
• Cc1cccc(-c2cc(Nc3ccncc3)c3ccccc3n2)n1 [GSK223675A] = 21.7 nM
• Cc1ccc2c(-c3ccncc3)c(-c3ccc(F)cc3)nn2c1.Cl [GW461484A] = 696 nM
• Cl.c1ccc(-c2n[nH]cc2-c2ccnc(-c3ccc(CN4CCOCC4)cc3)c2)nc1 [GW776245A] = 335 nM
• Cl.Cl.Oc1cc(-c2nc(-c3ccccc3)[nH]c2-c2ccncc2)ccc1Cl.Oc1cc(-c2nc(-c3ccccc3)[nH]c2-c2ccncc2)ccc1Cl = 968 nM
• c1ccc(-c2n[nH]cc2-c2ccnc(-c3ccc(OCCn4ccnc4)cc3)c2)nc1 [GW711782X] = 245 nM
• CCN(CC)CCOc1ccc(Nc2ncc3cc(-c4c(Cl)cccc4Cl)c(=O)n(C)c3n2)cc1 = 170 nM
